- SYSTEM: recombinant human TFPI (tissue factor pathway inhibitor) (human, UniProt P10646 29-304)
- EXPERIMENTAL_DETAILS: cell-based or functional assay
OBSERVABLE: % of Normalized, TF/FVIIa/FX complex assay, Ab 6.25 nM (%)
Numbers only, in %.

Input line: Would you mind telling me what % of Normalized, TF/FVIIa/FX complex assay, Ab 6.25 nM value was observed for clone 1023 (antibody, V domains shown, scFv on yeast at selection; human IgG4/kappa IgG as purified) VH: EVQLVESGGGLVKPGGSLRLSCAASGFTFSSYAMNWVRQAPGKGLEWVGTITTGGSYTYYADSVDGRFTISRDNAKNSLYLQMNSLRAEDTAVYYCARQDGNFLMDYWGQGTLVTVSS VL: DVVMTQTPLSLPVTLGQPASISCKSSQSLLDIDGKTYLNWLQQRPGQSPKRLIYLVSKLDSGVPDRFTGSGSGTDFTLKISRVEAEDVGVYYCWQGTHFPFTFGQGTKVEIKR ?
Output line: 8.3
